# target: T1, GST-tagged TASK-3 C-terminal 15 residues fusion protein, phosphorylated with PKA catalytic subunit (human, UniProt Q9NPC2 360-374)
# T1 chain: {GST}-SFTDHQRLMKRRK[pS]V
# assay comment: SPR
Non-standard residues stand in square brackets, D forms with d. No end group written: not given here. pS = N[C@@H](COP(=O)(O)O)C(=O)O
# pKd values compiled below
Kindly note that pKd refers to -log10 of the concentration in mol/L and answer with the value alone.

In the examples that follow, each entry is paired with its recorded pKd.
>  <binder>
14-3-3ζ (natural protein) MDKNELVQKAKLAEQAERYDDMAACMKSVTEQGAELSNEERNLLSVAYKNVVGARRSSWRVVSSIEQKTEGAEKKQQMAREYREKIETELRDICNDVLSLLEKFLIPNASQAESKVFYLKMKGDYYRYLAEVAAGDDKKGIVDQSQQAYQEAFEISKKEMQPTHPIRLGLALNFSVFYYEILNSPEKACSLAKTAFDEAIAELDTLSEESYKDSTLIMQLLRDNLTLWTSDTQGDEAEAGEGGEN

>  <data value>
6.66

$$$$
>  <binder>
14-3-3η (natural protein) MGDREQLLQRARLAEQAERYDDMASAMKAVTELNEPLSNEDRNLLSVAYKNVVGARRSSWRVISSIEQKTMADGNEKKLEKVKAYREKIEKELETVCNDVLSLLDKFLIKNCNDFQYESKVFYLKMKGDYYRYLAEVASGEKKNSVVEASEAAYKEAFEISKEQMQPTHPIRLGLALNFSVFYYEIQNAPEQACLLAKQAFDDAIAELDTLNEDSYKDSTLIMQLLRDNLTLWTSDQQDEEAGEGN

>  <data value>
6.94

$$$$

Record summary for 14-3-3ε (natural protein, human, UniProt P62258 1-255, looked up, 14-3-3 protein epsilon, human; open reading frame inserted into pMAL2Cx; also called 14-3-3 epsilon) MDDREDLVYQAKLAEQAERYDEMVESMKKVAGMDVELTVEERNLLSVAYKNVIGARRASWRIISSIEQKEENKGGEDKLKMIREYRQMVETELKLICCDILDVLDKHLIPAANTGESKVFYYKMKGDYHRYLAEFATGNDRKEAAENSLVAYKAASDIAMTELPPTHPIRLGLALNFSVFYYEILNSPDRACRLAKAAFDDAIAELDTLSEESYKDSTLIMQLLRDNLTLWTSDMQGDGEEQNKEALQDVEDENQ : reported pKd = 6.82

What the record says about 14-3-3β (natural protein, human, UniProt P31946 1-246, looked up, 14-3-3 protein beta, human; open reading frame inserted into pMAL2Cx; also called 14-3-3 beta) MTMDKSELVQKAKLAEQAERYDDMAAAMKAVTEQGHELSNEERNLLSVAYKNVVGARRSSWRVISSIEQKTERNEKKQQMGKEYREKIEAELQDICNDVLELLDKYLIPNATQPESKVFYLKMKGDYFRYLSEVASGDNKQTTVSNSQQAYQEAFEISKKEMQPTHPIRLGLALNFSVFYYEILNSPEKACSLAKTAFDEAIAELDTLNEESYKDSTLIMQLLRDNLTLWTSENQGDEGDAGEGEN : pKd is 6.74
